# testedOn: GLUT1 (Homo sapiens)
# Sequence (P11166 whole entry, species assumed): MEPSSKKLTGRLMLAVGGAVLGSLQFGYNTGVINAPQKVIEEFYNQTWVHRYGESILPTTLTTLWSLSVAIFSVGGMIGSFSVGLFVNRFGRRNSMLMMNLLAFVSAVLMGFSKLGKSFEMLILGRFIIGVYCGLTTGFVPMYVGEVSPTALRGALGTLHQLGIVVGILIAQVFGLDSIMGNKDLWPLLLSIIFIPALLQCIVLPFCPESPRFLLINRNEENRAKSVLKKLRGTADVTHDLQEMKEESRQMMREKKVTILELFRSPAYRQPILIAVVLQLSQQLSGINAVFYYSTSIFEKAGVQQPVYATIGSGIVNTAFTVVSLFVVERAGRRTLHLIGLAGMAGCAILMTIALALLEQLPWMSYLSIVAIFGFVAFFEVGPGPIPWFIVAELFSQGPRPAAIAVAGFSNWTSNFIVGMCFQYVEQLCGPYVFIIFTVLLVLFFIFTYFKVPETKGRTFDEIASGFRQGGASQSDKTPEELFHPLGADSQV
# experimentDescription: Indirect measurement of GLUT1 activity by quantification of intracellular ATP levels (glucose induced ATP increase)
# Format: cell-based
# Parameters: endogenous in cells; host or cells: DLD1 or CHO-K1
# runConditions: read-out: IC50 regarding glucose induced ATP increase (GLUT1 inhibition)
pIC50: −log10 of the molar value.
Recorded pIC50 split into classes bucket 1 (below 7), bucket 2 (7 to below 8), bucket 3 (8 or more)

- compound: "Cc1c(NC(=O)c2cc(C(N)=O)nc3cc(F)ccc23)c(C(F)(F)F)nn1C(C)c1ccccc1 (single isomer, unassigned) [Example 379]"
  testedOn: "GLUT1 (Homo sapiens)"
  classification: "bucket 1"
- compound: "Cc1nn(Cc2ccc(F)cc2)c(C)c1NC(=O)c1cc(C(N)=O)nc2ccc(Br)cc12 [Example 119]"
  testedOn: "GLUT1 (Homo sapiens)"
  classification: "bucket 3"
- compound: "Cc1c(NC(=O)c2cc(C(N)=O)nc3ccccc23)c(C(F)(F)F)nn1Cc1ccc(C(C)C)cc1 [Example 1407]"
  testedOn: "GLUT1 (Homo sapiens)"
  classification: "bucket 2"
- compound: "Cc1nn(Cc2ccc(C#N)cc2)c(C)c1NC(=O)c1cc(C(N)=O)nc2c(Cl)cccc12 [Example 255]"
  testedOn: "GLUT1 (Homo sapiens)"
  classification: "bucket 3"
- compound: "Cc1c(NC(=O)c2cc(C(N)=O)nc3cc(F)ccc23)c(C(F)(F)F)nn1Cc1ccc(C(=O)N(C)C)cc1 [Example 371]"
  testedOn: "GLUT1 (Homo sapiens)"
  classification: "bucket 1"
- compound: "CC(=O)c1ccc(Cn2nc(C(F)(F)F)c(NC(=O)c3cc(C(N)=O)nc4cccc(F)c34)c2C)cc1 [Example 1606]"
  testedOn: "GLUT1 (Homo sapiens)"
  classification: "bucket 3"
- compound: "Cc1nn(Cc2ccc(F)c(F)c2)c(C)c1NC(=O)c1cc(C(N)=O)nc2cc(F)c(Cl)cc12 [Example 1472]"
  testedOn: "GLUT1 (Homo sapiens)"
  classification: "bucket 3"
- compound: "Cc1nn(Cc2ccc(S(C)(=O)=O)cc2)c(C)c1NC(=O)c1cc(C(N)=O)nc2cccc(F)c12 [Example 1484]"
  testedOn: "GLUT1 (Homo sapiens)"
  classification: "bucket 2"
- compound: "Cc1cnc2ccccc2c1C(=O)Nc1c(C)nn(Cc2ccc(F)cc2)c1C [Example 1252]"
  testedOn: "GLUT1 (Homo sapiens)"
  classification: "bucket 1"
- compound: "Cc1c(NC(=O)c2cc(C(F)(F)F)nc3ccc(Br)cc23)c(C(=O)NCCO)nn1Cc1ccc(F)cc1 [Example 1235]"
  testedOn: "GLUT1 (Homo sapiens)"
  classification: "bucket 1"
- compound: "Cc1nn(Cc2ccc(C(=O)NCc3cccc(F)c3)cc2)c(C)c1NC(=O)c1cc(C(F)(F)F)nc2ccc(Br)cc12 [Example 1163]"
  testedOn: "GLUT1 (Homo sapiens)"
  classification: "bucket 1"
- compound: "Cc1nn(CC(=O)Nc2ccc(F)cc2)c(C)c1NC(=O)c1cc(C(N)=O)nc2ccccc12 [Example 1692]"
  testedOn: "GLUT1 (Homo sapiens)"
  classification: "bucket 1"
- compound: "Cc1c(NC(=O)c2cc(C(F)(F)F)nc3ccc(Br)cc23)c(C(F)(F)F)nn1Cc1ccncc1C#N [Example 1105]"
  testedOn: "GLUT1 (Homo sapiens)"
  classification: "bucket 2"
- compound: "Cc1nn(CC2CNC(=O)O2)c(C)c1NC(=O)c1cc(C(F)(F)F)nc2ccc(Br)cc12 (centres unmarked) [Example 1206]"
  testedOn: "GLUT1 (Homo sapiens)"
  classification: "bucket 1"
- compound: "COc1ccc(CCn2nc(C)c(NC(=O)c3cc(C(F)(F)F)nc4ccc(Br)cc34)c2C)cc1 [Example 1350]"
  testedOn: "GLUT1 (Homo sapiens)"
  classification: "bucket 2"
- compound: "Cc1ccc2nc(C)cc(C(=O)Nc3c(C)nn(Cc4ccc(F)cc4F)c3C)c2c1 [Example 96]"
  testedOn: "GLUT1 (Homo sapiens)"
  classification: "bucket 1"
- compound: "Cc1nn(Cc2ccc(CC(=O)NCc3cccnc3)cc2)c(C)c1NC(=O)c1cc(C(F)(F)F)nc2ccc(Br)cc12 [Example 157]"
  testedOn: "GLUT1 (Homo sapiens)"
  classification: "bucket 1"
- compound: "Cc1c(NC(=O)c2cc(S(N)(=O)=O)nc3ccccc23)c(C(F)(F)F)nn1Cc1ccc(C#N)cc1 [Example 1572]"
  testedOn: "GLUT1 (Homo sapiens)"
  classification: "bucket 1"
- compound: "Cc1nn(Cc2ccc(F)cc2C#N)c(C)c1NC(=O)c1cc(C(N)=O)nc2cc(F)c(Cl)cc12 [Example 1663]"
  testedOn: "GLUT1 (Homo sapiens)"
  classification: "bucket 3"
- compound: "Cc1cc(Cn2nc(C)c(NC(=O)c3cc(C(F)(F)F)nc4ccc(Br)cc34)c2C)no1 [Example 1505]"
  testedOn: "GLUT1 (Homo sapiens)"
  classification: "bucket 1"
- compound: "Cc1nn(Cc2ccc(F)c(F)c2)c(C)c1NC(=O)c1cc(C(C)C)nc2ccc(Br)cc12 [Example 129]"
  testedOn: "GLUT1 (Homo sapiens)"
  classification: "bucket 3"
- compound: "COc1ccc(Cn2nc(C)c(NC(=O)c3cc(C(N)=O)nc4cc(F)c(F)cc34)c2C)cc1F [Example 236]"
  testedOn: "GLUT1 (Homo sapiens)"
  classification: "bucket 3"
- compound: "Cc1c(NC(=O)c2cc(C(N)=O)nc3cc(F)c(Cl)cc23)c(C(F)(F)F)nn1Cc1ccc(CC(F)(F)F)cc1 [Example 1716]"
  testedOn: "GLUT1 (Homo sapiens)"
  classification: "bucket 3"

Where do the numbers come from? From patent US20170037028A1.
